Property: CRE; scope: individual molecules
organism: Rattus norvegicus; experiment: Open TG-GATES - Regimen: Single; format: toxicity, organism-based, Sprague-Dawley; parameters: regimen Single, gender Male, age 6 weeks; conditions: in vivo, po, 1000 mg/kg, 24 h, tissue Plasma, route gavage, dose level High
Only the number, expressed in mg/dL, is required.

>  <molecule>
Cc1nnc2n1-c1ccc(Cl)cc1C(c1ccccc1Cl)=NC2 [TRIAZOLAM]

>  <measuredMetric>
CRE

>  <numericResult>
0.2

$$$$

Next molecule, please.
-- ask Bench note: what CRE did O=C(OC[C@H]1O[C@@H](OC(=O)c2cc(O)c(O)c(OC(=O)c3cc(O)c(O)c(O)c3)c2)[C@H](OC(=O)c2cc(O)c(O)c(OC(=O)c3cc(O)c(O)c(O)c3)c2)[C@@H](OC(=O)c2cc(O)c(O)c(OC(=O)c3cc(O)c(O)c(O)c3)c2)[C@@H]1OC(=O)c1cc(O)c(O)c(OC(=O)c2cc(O)c(O)c(O)c2)c1)c1cc(O)c(O)c(OC(=O)c2cc(O)c(O)c(O)c2)c1 [TANNIC ACID] show?
-- reply 0.5

---

species on record: Rattus norvegicus; assay: Open TG-GATES - Regimen: Daily Repeat; assay type: toxicity, organism-based, Sprague-Dawley; set-up: regimen Daily Repeat, gender Male, age 6 weeks; details: in vivo, po, 300 mg/kg, […], tissue Plasma, route gavage, dose level Middle, time 7 day
Below, each of the compounds is paired with its reported TP value.
Response body: numeric value in g/dL, unit text excluded.

Example entries and their recorded answers appear below.
>  <structureAsSmiles>
CCOc1ccc(NC(C)=O)cc1

>  <TP [g/dL]>
5.9

$$$$
>  <structureAsSmiles>
CNC(=C[N+](=O)[O-])NCCSCc1ccc(CN(C)C)o1

>  <TP [g/dL]>
5.7

$$$$
>  <structureAsSmiles>
CN/C(=N/CCSCc1nc[nH]c1C)NC#N

>  <TP [g/dL]>
5.6

$$$$
>  <structureAsSmiles>
COC(=O)C1=C(C)NC(C)=C(C(=O)OC)C1c1ccccc1[N+](=O)[O-]

>  <TP [g/dL]>
5.9

$$$$
>  <structureAsSmiles>
O=C(OC[C@H]1O[C@@H](OC(=O)c2cc(O)c(O)c(OC(=O)c3cc(O)c(O)c(O)c3)c2)[C@H](OC(=O)c2cc(O)c(O)c(OC(=O)c3cc(O)c(O)c(O)c3)c2)[C@@H](OC(=O)c2cc(O)c(O)c(OC(=O)c3cc(O)c(O)c(O)c3)c2)[C@@H]1OC(=O)c1cc(O)c(O)c(OC(=O)c2cc(O)c(O)c(O)c2)c1)c1cc(O)c(O)c(OC(=O)c2cc(O)c(O)c(O)c2)c1

>  <TP [g/dL]>
6.1

$$$$

-- ask Name the reported TP value associated with the compound "Cc1nnc2n1-c1ccc(Cl)cc1C(c1ccccc1Cl)=NC2"
-- reply 5.7

---

species: Rattus norvegicus; experiment: Open TG-GATES - Regimen: Daily Repeat; type: toxicity, organism-based, Sprague-Dawley; set-up: regimen Daily Repeat, gender Male, age 6 weeks; settings: in vivo, po, 300 mg/kg, […], tissue Liver, route gavage, dose level Middle, time 7 day
measuredMetric: LIVER (g)
# value in g; strip the unit string

Known LIVER results, listed for orientation:
>  <molecule>
Cc1nnc2n1-c1ccc(Cl)cc1C(c1ccccc1Cl)=NC2 [TRIAZOLAM]

>  <measuredMetric>
LIVER

>  <valueUnits>
g

>  <numericResult>
12.6

$$$$
>  <molecule>
COC(=O)C1=C(C)NC(C)=C(C(=O)OC)C1c1ccccc1[N+](=O)[O-] [NIFEDIPINE]

>  <measuredMetric>
LIVER

>  <valueUnits>
g

>  <numericResult>
12.8

$$$$
>  <molecule>
O=C(OC[C@H]1O[C@@H](OC(=O)c2cc(O)c(O)c(OC(=O)c3cc(O)c(O)c(O)c3)c2)[C@H](OC(=O)c2cc(O)c(O)c(OC(=O)c3cc(O)c(O)c(O)c3)c2)[C@@H](OC(=O)c2cc(O)c(O)c(OC(=O)c3cc(O)c(O)c(O)c3)c2)[C@@H]1OC(=O)c1cc(O)c(O)c(OC(=O)c2cc(O)c(O)c(O)c2)c1)c1cc(O)c(O)c(OC(=O)c2cc(O)c(O)c(O)c2)c1 [TANNIC ACID]

>  <measuredMetric>
LIVER

>  <valueUnits>
g

>  <numericResult>
12.2

$$$$
>  <molecule>
CN/C(=N/CCSCc1nc[nH]c1C)NC#N [CIMETIDINE]

>  <measuredMetric>
LIVER

>  <valueUnits>
g

>  <numericResult>
12.3

$$$$

Next, consider the following molecule.
-- ask Recorded LIVER of CNC(=C[N+](=O)[O-])NCCSCc1ccc(CN(C)C)o1 [RANITIDINE] , please.
-- reply 11.7

---

Measured Neu accompanies every entry in the list below.
species on record: Rattus norvegicus; assay: Open TG-GATES - Regimen: Single; assay type: toxicity, organism-based, Sprague-Dawley; design: regimen Single, gender Male, age 6 weeks; conditions: in vivo, po, 100 mg/kg, 6 h, tissue Blood, route gavage, dose level Low
Please respond with the number in % and leave the unit unwritten.

>  <structureAsSmiles>
COC(=O)C1=C(C)NC(C)=C(C(=O)OC)C1c1ccccc1[N+](=O)[O-]

>  <Neu, %>
18.6

$$$$

-- ask Form field: reported Neu of "CN/C(=N/CCSCc1nc[nH]c1C)NC#N"
-- reply 17.6

-- ask What value of Neu has been reported for the following compound? "Cc1nnc2n1-c1ccc(Cl)cc1C(c1ccccc1Cl)=NC2"
-- reply 19.6

-- ask Entry "CNC(=C[N+](=O)[O-])NCCSCc1ccc(CN(C)C)o1" : reported Neu = ?
-- reply 19.6

-- ask Entry "O=C(OC[C@H]1O[C@@H](OC(=O)c2cc(O)c(O)c(OC(=O)c3cc(O)c(O)c(O)c3)c2)[C@H](OC(=O)c2cc(O)c(O)c(OC(=O)c3cc(O)c(O)c(O)c3)c2)[C@@H](OC(=O)c2cc(O)c(O)c(OC(=O)c3cc(O)c(O)c(O)c3)c2)[C@@H]1OC(=O)c1cc(O)c(O)c(OC(=O)c2cc(O)c(O)c(O)c2)c1)c1cc(O)c(O)c(OC(=O)c2cc(O)c(O)c(O)c2)c1" has what Neu?
-- reply 14.6

---

species on record: Rattus norvegicus; assay: Open TG-GATES - Regimen: Daily Repeat; assay type: toxicity, organism-based, Sprague-Dawley; set-up: regimen Daily Repeat, gender Male, age 6 weeks; conditions: in vivo, po, 100 mg/kg, […], route gavage, dose level Low, time 7 day
Some molecules, each annotated with its measured TERMINAL_BW.
Numbers only; they are read as g.

Examples with their reported TERMINAL_BW follow.
>  <structureAsSmiles>
COC(=O)C1=C(C)NC(C)=C(C(=O)OC)C1c1ccccc1[N+](=O)[O-]

>  <valueUnits>
g

>  <numericResult>
261.8

$$$$
>  <structureAsSmiles>
CNC(=C[N+](=O)[O-])NCCSCc1ccc(CN(C)C)o1

>  <valueUnits>
g

>  <numericResult>
264.8

$$$$
>  <structureAsSmiles>
CCOc1ccc(NC(C)=O)cc1

>  <valueUnits>
g

>  <numericResult>
270.6

$$$$
>  <structureAsSmiles>
CN/C(=N/CCSCc1nc[nH]c1C)NC#N

>  <valueUnits>
g

>  <numericResult>
260

$$$$
>  <structureAsSmiles>
Cc1nnc2n1-c1ccc(Cl)cc1C(c1ccccc1Cl)=NC2

>  <valueUnits>
g

>  <numericResult>
251.1

$$$$

Please examine the following record next.
-- ask Entry under review: "O=C(OC[C@H]1O[C@@H](OC(=O)c2cc(O)c(O)c(OC(=O)c3cc(O)c(O)c(O)c3)c2)[C@H](OC(=O)c2cc(O)c(O)c(OC(=O)c3cc(O)c(O)c(O)c3)c2)[C@@H](OC(=O)c2cc(O)c(O)c(OC(=O)c3cc(O)c(O)c(O)c3)c2)[C@@H]1OC(=O)c1cc(O)c(O)c(OC(=O)c2cc(O)c(O)c(O)c2)c1)c1cc(O)c(O)c(OC(=O)c2cc(O)c(O)c(O)c2)c1" . Reported TERMINAL_BW?
-- reply 249.2

---

The following compounds are shown together with reported TC values.
species: Rattus norvegicus; assay: Open TG-GATES - Regimen: Single; format: toxicity, organism-based, Sprague-Dawley; parameters: regimen Single, gender Male, age 6 weeks; details: in vivo, po, 0 mg/kg, 9 h, tissue Plasma, route gavage, dose level Control
Unit mg/dL implied. Number only.

# count of solved cases: 6
>  <compound>
CC(C)NNC(=O)c1ccncc1 [IPRONIAZID]

>  <valueUnits>
mg/dL

>  <TC>
81.8

$$$$
>  <compound>
O=C(OC[C@H]1O[C@@H](OC(=O)c2cc(O)c(O)c(OC(=O)c3cc(O)c(O)c(O)c3)c2)[C@H](OC(=O)c2cc(O)c(O)c(OC(=O)c3cc(O)c(O)c(O)c3)c2)[C@@H](OC(=O)c2cc(O)c(O)c(OC(=O)c3cc(O)c(O)c(O)c3)c2)[C@@H]1OC(=O)c1cc(O)c(O)c(OC(=O)c2cc(O)c(O)c(O)c2)c1)c1cc(O)c(O)c(OC(=O)c2cc(O)c(O)c(O)c2)c1 [TANNIC ACID]

>  <valueUnits>
mg/dL

>  <TC>
81.4

$$$$
>  <compound>
NC1=NC(=O)C(c2ccccc2)O1 (configuration not stated) [PEMOLINE]

>  <valueUnits>
mg/dL

>  <TC>
74.2

$$$$
>  <compound>
CCCc1cc(=O)[nH]c(=S)[nH]1 [PROPYLTHIOURACIL]

>  <valueUnits>
mg/dL

>  <TC>
76

$$$$
>  <compound>
Cc1nnc2n1-c1ccc(Cl)cc1C(c1ccccc1Cl)=NC2 [TRIAZOLAM]

>  <valueUnits>
mg/dL

>  <TC>
71.8

$$$$
>  <compound>
COC(=O)C1=C(C)NC(C)=C(C(=O)OC)C1c1ccccc1[N+](=O)[O-] [NIFEDIPINE]

>  <valueUnits>
mg/dL

>  <TC>
79

$$$$

-- ask Can you look up the measured TC of CN1C(=O)CCS(=O)(=O)C1c1ccc(Cl)cc1 (configuration not stated) [CHLORMEZANONE] for me?
-- reply 74.8
